Numbers sourced from the DeepSol protein solubility set.

Test summary: soluble on expression in E. coli; label from the status in PepcDB or PDB records
Assay endpoint: soluble on expression in E. coli

MGLKLDLTWFDKSTEDFKGEEYSKDFGDDGSVMESLGVPFKDNVNNGCFDVIAEWVPLLQPYFNHQIDISDNEYFVSFDYRDGDW soluble
MESNNGIILRVAEANSTDPGMSRVRLDESSRRLLDAEIGDVVEIEKVRKTVGRVYRARPEDENKGIVRIDSVMRNNCGASIGDKVKVRKVRTEIAKKVTLAPIIRKDQRLKFGEGIEEYVQRALIRRPMLEQDNISVPGLTLAGQTGLLFKVVKTLPSKVPVEIGEETKIEIREEPASEVLEEGG soluble
MSLTVSFVRIDDRMIHGQTVTRWAKEYPCDGLIAVNDAAAKNKVLIQAYKGASDKKTFVWSKEAFAAKSQKVSDSDSRYFLITKNPVDMKEILVDQGFVPGEVKEIIVGPANDRPGAVKLGNNQSITQEEADAIEAIEKAGYKVKFQLLPDVSIGYWSDFKGKFGEGHHHHHH soluble

----------
Test summary: soluble on expression in E. coli; label from the status in PepcDB or PDB records
Assay endpoint: soluble on expression in E. coli

MVYFGRAKTLSHRHPNTGSGGCVFSLKTVLLYQQDSYLREFEARVEEASGGRVVLDRTAFHPGPHGGLDTDTGYIFYGDKRYRVVRAAVEGDVVAHYLDSDTATLEPGAVVKGVIDWERRYRMMRLHTFSHILAAVLYEKHDVLVTGGHITPDYGKDDFSIEGGGWREVIEEAFREANEIASRCIEVKVYWLPREEALKIPGIVKLANKLPPEVETLRIVEIPGVDVQADGGPHVRNTCEIGRVVITKLESKGKRRKRVYYTLEEALEPTPEAP not soluble
MKKTRTANLHHLYHEALPEDVKLTPRVEVDNVHQRRTTDVYEHALTITAWQQIYDQLHPGKFHGEFTEILLDEIQVFREYTGLALRQSCLVWPNSFWFGIPATRGEQGFIGAQGLGSAEIATRPGGTEFELSTPDDYTILGVVISEDVISRQATFLHNPERVLHMLRNQLALEVKEQHKAALWGFVQQALATFSESPETLHQPAVRKVLSDNLLLAMGTMLEEAKPIHSAESISHQGYRRLLSRAREYVLENMSEPLTVLDLCNQLHVSRRTLQNAFHAILGIGPNAWLKRIRLNAVRRELISPWSQSATVKDAAMQWGFWHLGQFATDYQQLFAEKPSLTLHQRMRQWA not soluble
MSLSGKENPNICFLPTATGDADEVIERFYNAKLSENVTHFPLFKFDAGWKETLFEQDIIYVGGGNTRSMLAIWREWGIDRILKQCYEQGIIICGMSAGAICWFEFAVTDSDPEAYQVMRCLGLIDGLAAAHFSHVGEKFEVFQAFARSQPSITCYGIHDYAALHFVDGKLLATVTSFPDAGVLVKTGNDENILRGEGHHHHHH not soluble

----------
Test summary: soluble on expression in E. coli; label from the status in PepcDB or PDB records
Assay endpoint: soluble on expression in E. coli

GSFTMSYCRQEGKDRIIFVTKEDHETPSSAELVADDPNDPYEEHGLILPNGNINWNCPCLGGMASGPCGEQFKSAFSCFHYSTEEIKGSDCVDQFRAMQECMQKYPDLYPQEDEDEEEEREKKPAEQAEETAPIEATATKEEEGSS soluble
PDLYNHAIVIGYGRVGSMLAQLLQSRHVPLLVIDDNSEHVLKAHAAGIPAIRGSAAADLVLAEAHPERAKIAVLAIPQPLEAGEILAKLRALNPELTLVARAQNDAEVKHLLGHGADATVVAEHEMAHSLAEMVLSSTNH not soluble
GMRKDDVVIVTCAITGAIHTPSMSPYLPVTPDQIVEEAVKAAEAGAGMVHIHARDPKDGRPTTDVEVFRYICREIKKQSDVVINVTTGGGGTLGIPVEERAKVVPALKPEIATFNMGSMNFAIHPLLKKYKEFKYDWEPEYLEMTRDIVFRNTFKDLEALSRIFKENDTKPELECYDIGQIYNTAFMFHEGYLEPPLRLQFIHGILGGIGTAVEDVLFMKQTADRLIGRENYTWSLVGAGRFQMPLGTLAVIMGGDVRVGLEDSLYIERGKLAKSNAEQVEKMVRIVKELGKRPATPDEVREILGLKGKERVNF soluble
MAHHHHHHMERYESIAERAGFARSQVLPRGSGGSSSASVCYENAANYLQHARGADYATASCSVPVDIWDALCQGEASVLRVGQLGEGRQRLIAYESCTTSSHSGDLSSRLASLEKSLDKLLSEFPKTAEELVTLDYNASLCSAAARSVLTAVPSFLSISGLLRTINNKLCSLDGFSREVLPLMRCDDDVSRQCLLVAGRLDTLEEKLRTTEALVAALGHTSAASNAIFERIGARYGETTRAATM not soluble
